Collected exon inclusion enrichment index values appear next to each entry.
B1: mRNA-splicing (parent)
chain: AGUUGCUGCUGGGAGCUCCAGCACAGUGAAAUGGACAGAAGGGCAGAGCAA

# Variants of: B1
# protocol-summary: exon inclusion enrichment index; higher = more inclusion; WT1 exon 5 minigene, HEK293
Number only, no unit.

Some solved entries appear below for comparison.
G46U A47U : 0.237
G5C C6A U7C G8A U10A A14G G15U : 0.0158

Ask: // exon inclusion enrichment index lookup, key: `C24G`
Reply: 0.0337

Ask: // exon inclusion enrichment index lookup, key: G5C C6U G8C C9U U10C G33A
Reply: 0.198

Ask: // exon inclusion enrichment index lookup, key: G5U G8U C9U G38U A39U
Reply: 0.00101

Ask: // exon inclusion enrichment index lookup, key: G5A U7C G8A U10C C44G A45U
Reply: 1.92
